- System: N. gonorrhoeae WHO F
- Experiment summary: Liquid broth MIC, N. gonorrhoeae WHO F
- Format: cell-based
- Assay conditions: Neisseria gonorrhoeae; N. gonorrhoeae WHO F, liquid broth; read-out: Minimum Inhibitory Concentration, N. gonorrhoeae WHO F
Measurement type: MIC

Compound: NCCN1CCN(C(=O)N[C@@H](C(=O)N[C@H]2Cc3ccc(F)c(C(=O)O)c3OB2O)c2ccc(O)c(O)c2Cl)C(=O)C1=O
Tgt: N. gonorrhoeae WHO F
Value observed: 1 to 2 µg/mL
--
Compound: O=C(O)c1c(F)ccc2c1OB(O)[C@@H](NC(=O)C(NC(=O)N1CCN(CCF)C(=O)C1=O)c1ccc(O)c(O)c1Cl)C2 (some centres unmarked)
Tgt: N. gonorrhoeae WHO F
Value observed: 0.25 to 0.5 µg/mL
--
Compound: NCCN1CCN(C(=O)N[C@@H](C(=O)N[C@H]2Cc3cccc(C(=O)O)c3OB2O)c2ncc(O)cc2F)C(=O)C1=O
Tgt: N. gonorrhoeae WHO F
Value observed: 0.25 to 0.5 µg/mL
--
Compound: CCN1CCN(C(=O)NC(C(=O)N[C@H]2Cc3cccc(C(=O)O)c3OB2O)c2ncc(O)cn2)C(=O)C1=O (some centres unmarked)
Tgt: N. gonorrhoeae WHO F
Value observed: 0.25 to 0.5 µg/mL
--
Compound: CCN1CCN(C(=O)NC(C(=O)N[C@H]2Cc3cccc(C(=O)O)c3OB2O)c2ccc(C(N)=O)cc2)C(=O)C1=O (some centres unmarked)
Tgt: N. gonorrhoeae WHO F
Value observed: < 0.125 µg/mL
--
Compound: NCCCN1CCN(C(=O)N[C@@H](C(=O)N[C@H]2Cc3ccc(F)c(C(=O)O)c3OB2O)c2ccc(O)c(O)c2Cl)C(=O)C1=O
Tgt: N. gonorrhoeae WHO F
Value observed: 1 to 2 µg/mL
--
Compound: CCN1CCN(C(=O)NC(C(=O)N[C@H]2Cc3cccc(C(=O)O)c3OB2O)c2ccc(B(O)O)cc2)C(=O)C1=O (some centres unmarked)
Tgt: N. gonorrhoeae WHO F
Value observed: < 0.125 µg/mL
--
Compound: CCN1CCN(C(=O)NC(C(=O)N[C@H]2Cc3cccc(C(=O)O)c3OB2O)c2ccc(-c3nnn[nH]3)cc2)C(=O)C1=O (some centres unmarked)
Tgt: N. gonorrhoeae WHO F
Value observed: < 0.125 µg/mL
--
Compound: NCCCN1CCN(C(=O)NC(C(=O)N[C@H]2Cc3cccc(C(=O)O)c3OB2O)c2ccc(O)c(O)c2Cl)C(=O)C1=O (some centres unmarked)
Tgt: N. gonorrhoeae WHO F
Value observed: 4 to 8 µg/mL
--
Compound: CCN1CCN(C(=O)NC(C(=O)N[C@H]2Cc3cccc(C(=O)O)c3OB2O)c2csc(N)n2)C(=O)C1=O (some centres unmarked)
Tgt: N. gonorrhoeae WHO F
Value observed: < 0.125 µg/mL
--
Compound: CCN1CCN(C(=O)NC(C(=O)N[C@H]2Cc3ccc(F)c(C(=O)O)c3OB2O)c2cccs2)C(=O)C1=O (some centres unmarked)
Tgt: N. gonorrhoeae WHO F
Value observed: < 0.125 µg/mL
--
Compound: CCN1CCN(C(=O)NC(C(=O)N[C@H]2Cc3cccc(C(=O)O)c3OB2O)c2nc(N)sc2F)C(=O)C1=O (some centres unmarked)
Tgt: N. gonorrhoeae WHO F
Value observed: < 0.125 µg/mL
--
Compound: CCN1CCN(C(=O)NC(C(=O)N[C@H]2Cc3ccc(Cl)c(C(=O)O)c3OB2O)c2csc(N)n2)C(=O)C1=O (some centres unmarked)
Tgt: N. gonorrhoeae WHO F
Value observed: 0.25 to 0.5 µg/mL
--
Compound: NCCN1CCN(C(=O)N[C@@H](C(=O)N[C@H]2Cc3cccc(C(=O)O)c3OB2O)c2ccc(O)c(O)c2Cl)C(=O)C1=O
Tgt: N. gonorrhoeae WHO F
Value observed: 1 to 2 µg/mL

###

# MIC per record follows
- Tested on: P. aeruginosa PAO1
- Experiment summary: Broth microdilution MIC, P. aeruginosa PAO1
- Assay type: cell-based
- Assay conditions: Pseudomonas aeruginosa; P. aeruginosa PAO1, broth microdilution; read-out: MIC P. aeruginosa PAO1
Measurement type: MIC

Compound: CCN1CCN(C(=O)NC(C(=O)N[C@H]2Cc3ccc(F)c(C(=O)O)c3OB2O)c2ncc(O)cc2Cl)C(=O)C1=O (stereo partly shown)
Tgt: P. aeruginosa PAO1
Value observed: > 128 µg/mL

Compound: CCN1CCN(C(=O)N[C@@H](C(=O)N[C@H]2Cc3ccc(F)c(C(=O)O)c3OB2O)c2ccc(O)c(F)c2)C(=O)C1=O
Tgt: P. aeruginosa PAO1
Value observed: > 128 µg/mL

Compound: O=C(O)c1cccc2c1OB(O)[C@@H](NC(=O)C(NC(=O)N1CCN(CCF)C(=O)C1=O)c1ccc(S(=O)(=O)NCCO)cc1)C2 (stereo partly shown)
Tgt: P. aeruginosa PAO1
Value observed: > 128 µg/mL

Compound: CCN1CCN(C(=O)NC(C(=O)N[C@H]2Cc3cccc(C(=O)O)c3OB2O)c2ccc(S(N)(=O)=O)c(F)c2)C(=O)C1=O (stereo partly shown)
Tgt: P. aeruginosa PAO1
Value observed: > 128 µg/mL

Compound: CCN1CCN(C(=O)N[C@H](C(=O)N[C@H]2Cc3ccc(F)c(C(=O)O)c3OB2O)c2ccc(O)c(O)c2Cl)C(=O)C1=O
Tgt: P. aeruginosa PAO1
Value observed: 8 to 16 µg/mL

Compound: CCN1CCN(C(=O)NC(C(=O)N[C@H]2Cc3ccc(F)c(C(=O)O)c3OB2O)c2ccc(O)c(O)c2Cl)C(=O)C1=O (stereo partly shown)
Tgt: P. aeruginosa PAO1
Value observed: 0.5 to 1 µg/mL

Compound: CCN1CCN(C(=O)N[C@@H](C(=O)N[C@H]2Cc3cccc(C(=O)O)c3OB2O)c2ncc(O)cc2F)C(=O)C1=O
Tgt: P. aeruginosa PAO1
Value observed: > 128 µg/mL

Compound: CCN1CCN(C(=O)NC(C(=O)N[C@H]2Cc3ccc(Cl)c(C(=O)O)c3OB2O)c2ncc(O)cc2F)C(=O)C1=O (stereo partly shown)
Tgt: P. aeruginosa PAO1
Value observed: > 128 µg/mL

Compound: O=C(O)c1c(F)ccc2c1OB(O)[C@@H](NC(=O)C(NC(=O)N1CCN(CCF)C(=O)C1=O)c1ccc(O)c(O)c1Cl)C2 (stereo partly shown)
Tgt: P. aeruginosa PAO1
Value observed: 0.5 to 1 µg/mL

Compound: CCN1CCN(C(=O)NC(C(=O)N[C@H]2Cc3cccc(C(=O)O)c3OB2O)c2nc(N)sc2F)C(=O)C1=O (stereo partly shown)
Tgt: P. aeruginosa PAO1
Value observed: > 128 µg/mL

Compound: NCCN1CCN(C(=O)N[C@@H](C(=O)N[C@H]2Cc3ccc(F)c(C(=O)O)c3OB2O)c2ncc(O)cc2F)C(=O)C1=O
Tgt: P. aeruginosa PAO1
Value observed: 32 to 64 µg/mL

Compound: CCN1CCN(C(=O)N[C@@H](C(=O)N[C@H]2Cc3ccc(F)c(C(=O)O)c3OB2O)c2ccsc2)C(=O)C1=O
Tgt: P. aeruginosa PAO1
Value observed: > 128 µg/mL

Compound: NCCN1CCN(C(=O)N[C@@H](C(=O)N[C@H]2Cc3cccc(C(=O)O)c3OB2O)c2ccc(O)c(O)c2Cl)C(=O)C1=O
Tgt: P. aeruginosa PAO1
Value observed: 0.5 to 1 µg/mL

###

- Tested on: E. coli AG100
- Experiment summary: Broth microdilution MIC, E. coli AG100 (wild-type parent)
- Assay type: cell-based
- Assay conditions: Escherichia coli; wild-type parent E. coli AG100, broth microdilution; read-out: MIC E. coli AG100
Measurement type: MIC

Compound: CCN1CCN(C(=O)N2C[C@@H](O)C[C@@H]2C(=O)N[C@H]2Cc3cccc(C(=O)O)c3OB2O)C(=O)C1=O
Value observed: > 128 µg/mL
--
Compound: CCCN1CCN(C(=O)NC(C(=O)N[C@H]2Cc3cccc(C(=O)O)c3OB2O)c2ccc(O)c(O)c2Cl)C(=O)C1=O (stereo partly shown)
Value observed: 32 to 64 µg/mL
--
Compound: CCN1C[C@H](C)N(C(=O)NC(C(=O)N[C@H]2Cc3cccc(C(=O)O)c3OB2O)c2ncc(O)cc2F)C(=O)C1=O (stereo partly shown)
Value observed: 8 to 16 µg/mL
--
Compound: CCOC(=O)c1cccc2c1OB(O)[C@@H](NC(=O)C(NC(=O)N1CCN(CC)C(=O)C1=O)c1ncc(O)cc1F)C2 (stereo partly shown)
Value observed: > 128 µg/mL
--
Compound: CCN1CCN(C(=O)N[C@H](C(=O)N[C@H]2Cc3ccc(F)c(C(=O)O)c3OB2O)c2ccc(O)c(F)c2)C(=O)C1=O
Value observed: > 128 µg/mL
--
Compound: O=C(O)c1cccc2c1OB(O)[C@@H](NC(=O)C(NC(=O)c1c[nH]ccc1=O)c1ncc(O)cc1F)C2 (stereo partly shown)
Value observed: > 128 µg/mL
--
Compound: O=C(O)c1cccc2c1OB(O)[C@@H](NC(=O)C(NC(=O)N1CCN(CCF)C(=O)C1=O)c1ccc(B(O)O)cc1)C2 (stereo partly shown)
Value observed: 32 to 64 µg/mL
